For each entry below, report its z-score value.
- systemName: Homeobox protein Hox-A13 (Mus musculus) (UniProt Q62424)
- Sequence (Q62424 whole entry, looked up): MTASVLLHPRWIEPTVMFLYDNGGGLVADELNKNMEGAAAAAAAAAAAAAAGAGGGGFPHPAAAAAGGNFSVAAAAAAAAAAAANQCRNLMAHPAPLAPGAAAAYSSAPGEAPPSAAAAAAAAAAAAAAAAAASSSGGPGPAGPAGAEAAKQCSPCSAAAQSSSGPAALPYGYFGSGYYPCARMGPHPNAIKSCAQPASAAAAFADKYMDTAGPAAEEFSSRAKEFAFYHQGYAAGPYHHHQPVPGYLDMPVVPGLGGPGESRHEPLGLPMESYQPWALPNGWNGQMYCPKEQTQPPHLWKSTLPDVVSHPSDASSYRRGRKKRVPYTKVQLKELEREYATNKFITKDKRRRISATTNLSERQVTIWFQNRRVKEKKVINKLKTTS
- measurementDescription: disruptors of Hoxa13 oligonucleotide interaction – biochemical, fluorescence polarization, labeled oligonucleotide, primary screen (AID 1185)
- cond: Hoxa13:DNA binding, 15 min, higher = more signal, called active from +8 up or from −8 down
Could you respond with only the numeric value?

input: Return reported z-score; argument: O=C1NC(=O)C2C1C=CC(C(O)c1ccc(-c3ccccc3)s1)N2Nc1ccc(Cl)cc1Cl (centres undefined)
output: -3.64

input: What does the data say about its z-score? Entry: COCCOC(=O)N1C(=O)[C@@]2(c3cc(C#CC4=CCCCC4)ccc31)[C@H](c1ccc(OCCO)cc1)N1[C@H](c3ccccc3)[C@H](c3ccccc3)OC(=O)[C@H]1[C@@H]2C(=O)N1CCc2cc(OC)c(OC)cc2C1
output: 3.66

input: Using the record for CC=CC(O)C1C=CC2C(=O)N(C)C(=O)C2N1N(c1ccccc1)c1ccccc1 (centres undefined) , report its z-score.
output: -0.125

input: Give the measured z-score of O=c1cccc(-c2ccccc2Cl)o1 .
output: -0.226
